Reported Max Ex is given for each of the following molecules.
TEST_NAME: Optical characterization (excitation/emission maxima, molar extinction coefficient)
Type: physicochemical
ASSAY_CONTEXT: PBS pH 7.4
QUANTITY: Max Ex (nm)

[[record]]
molecule = "CC1(C)C(/C=C/C2=C(Oc3ccc(S(=O)(=O)O)cc3)C(=C/C=C3/N(CCCCS(=O)(=O)O)c4ccc(S(=O)(=O)O)cc4C3(C)C)/CCC2)=[N+](CCCCS(=O)(=O)[O-])c2ccc(C(=O)NCCCCCCCC(=O)Nc3nnc(S(N)(=O)=O)s3)cc21"
quantity = "Max Ex"
units_symbol = "nm"
reading = 776

[[record]]
molecule = "CC1(C)C(/C=C/C=C/C=C/C=C2/N(CCCCS(=O)(=O)O)c3ccc(C(=O)NC[C@H](O)[C@@H](O)[C@H](O)[C@H](O)CO)cc3C2(C)C)=[N+](CCCCS(=O)(=O)[O-])c2ccc(C(=O)NCCCCCCCC(=O)Nc3nnc(S(N)(=O)=O)s3)cc21"
quantity = "Max Ex"
units_symbol = "nm"
reading = 752

[[record]]
molecule = "CC1(C)C(/C=C/C=C/C=C/C=C2/N(CCCCS(=O)(=O)O)c3ccc(S(=O)(=O)O)cc3C2(C)C)=[N+](CCCCS(=O)(=O)[O-])c2ccc(C(=O)NCCCCCCCC(=O)Nc3nnc(S(N)(=O)=O)s3)cc21"
quantity = "Max Ex"
units_symbol = "nm"
reading = 754

[[record]]
molecule = "CC1(C)C(/C=C/C2=C(Oc3ccc(CCC(=O)NCCCCCCCC(=O)Nc4nnc(S(N)(=O)=O)s4)cc3)C(=C/C=C3/N(CCCCS(=O)(=O)O)c4ccc(S(=O)(=O)O)cc4C3(C)C)/CCC2)=[N+](CCCCS(=O)(=O)[O-])c2ccc(S(=O)(=O)O)cc21 [HF-1, reference compound]"
quantity = "Max Ex"
units_symbol = "nm"
reading = 772


====

TEST_NAME: Optical characterization (excitation/emission maxima, molar extinction coefficient)
Assay type: physicochemical
ASSAY_CONTEXT: Seronorm
QUANTITY: Max Ex (nm)

[[record]]
compound = "CC1(C)C(/C=C/C2=C(Oc3ccc(CCC(=O)NCCCCCCCC(=O)Nc4nnc(S(N)(=O)=O)s4)cc3)C(=C/C=C3/N(CCCCS(=O)(=O)O)c4ccc(S(=O)(=O)O)cc4C3(C)C)/CCC2)=[N+](CCCCS(=O)(=O)[O-])c2ccc(S(=O)(=O)O)cc21 [HF-1, reference compound]"
quantity = "Max Ex"
reading = 792

[[record]]
compound = "CC1(C)C(/C=C/C=C/C=C/C=C2/N(CCCCS(=O)(=O)O)c3ccc(S(=O)(=O)O)cc3C2(C)C)=[N+](CCCCS(=O)(=O)[O-])c2ccc(C(=O)NCCCCCCCC(=O)Nc3nnc(S(N)(=O)=O)s3)cc21"
quantity = "Max Ex"
reading = 768

[[record]]
compound = "CC1(C)C(/C=C/C=C/C=C/C=C2/N(CCCCS(=O)(=O)O)c3ccc(C(=O)NC[C@H](O)[C@@H](O)[C@H](O)[C@H](O)CO)cc3C2(C)C)=[N+](CCCCS(=O)(=O)[O-])c2ccc(C(=O)NCCCCCCCC(=O)Nc3nnc(S(N)(=O)=O)s3)cc21"
quantity = "Max Ex"
reading = 768

[[record]]
compound = "CC1(C)C(/C=C/C2=C(Oc3ccc(S(=O)(=O)O)cc3)C(=C/C=C3/N(CCCCS(=O)(=O)O)c4ccc(S(=O)(=O)O)cc4C3(C)C)/CCC2)=[N+](CCCCS(=O)(=O)[O-])c2ccc(C(=O)NCCCCCCCC(=O)Nc3nnc(S(N)(=O)=O)s3)cc21"
quantity = "Max Ex"
reading = 792


====

TEST_NAME: Optical characterization (excitation/emission maxima, molar extinction coefficient)
Type: physicochemical
ASSAY_CONTEXT: in water
Overview of reported molar extinction coefficient (ε) across a group of molecules:
QUANTITY: molar extinction coefficient (ε) (M⁻¹ cm⁻¹)

[[record]]
molecule = "CC1(C)C(/C=C/C=C/C=C/C=C2/N(CCCCS(=O)(=O)O)c3ccc(C(=O)NC[C@H](O)[C@@H](O)[C@H](O)[C@H](O)CO)cc3C2(C)C)=[N+](CCCCS(=O)(=O)[O-])c2ccc(C(=O)NCCCCCCCC(=O)Nc3nnc(S(N)(=O)=O)s3)cc21"
units_symbol = "M⁻¹ cm⁻¹"
reading = 240000

[[record]]
molecule = "CC1(C)C(/C=C/C2=C(Oc3ccc(CCC(=O)NCCCCCCCC(=O)Nc4nnc(S(N)(=O)=O)s4)cc3)C(=C/C=C3/N(CCCCS(=O)(=O)O)c4ccc(S(=O)(=O)O)cc4C3(C)C)/CCC2)=[N+](CCCCS(=O)(=O)[O-])c2ccc(S(=O)(=O)O)cc21 [HF-1, reference compound]"
units_symbol = "M⁻¹ cm⁻¹"
reading = 255000

[[record]]
molecule = "CC1(C)C(/C=C/C2=C(Oc3ccc(S(=O)(=O)O)cc3)C(=C/C=C3/N(CCCCS(=O)(=O)O)c4ccc(S(=O)(=O)O)cc4C3(C)C)/CCC2)=[N+](CCCCS(=O)(=O)[O-])c2ccc(C(=O)NCCCCCCCC(=O)Nc3nnc(S(N)(=O)=O)s3)cc21"
units_symbol = "M⁻¹ cm⁻¹"
reading = 240000

[[record]]
molecule = "CC1(C)C(/C=C/C=C/C=C/C=C2/N(CCCCS(=O)(=O)O)c3ccc(S(=O)(=O)O)cc3C2(C)C)=[N+](CCCCS(=O)(=O)[O-])c2ccc(C(=O)NCCCCCCCC(=O)Nc3nnc(S(N)(=O)=O)s3)cc21"
units_symbol = "M⁻¹ cm⁻¹"
reading = 260000


====

Test system: HT-29 tumor
TEST_NAME: Ex vivo tumor-to-background ratio in excised HT-29 tumors
Parameters: species or system mice
ASSAY_CONTEXT: 1 nmol/mouse, samples collected 24 hours after administration; tumor vs hind limb muscle
Readings of ex vivo TBR ± SD, HT-29 tumor for the listed compounds
QUANTITY: ex vivo TBR ± SD, HT-29 tumor

[[record]]
compound = "CC1(C)C(/C=C/C2=C(Oc3ccc(S(=O)(=O)O)cc3)C(=C/C=C3/N(CCCCS(=O)(=O)O)c4ccc(S(=O)(=O)O)cc4C3(C)C)/CCC2)=[N+](CCCCS(=O)(=O)[O-])c2ccc(C(=O)NCCCCCCCC(=O)Nc3nnc(S(N)(=O)=O)s3)cc21"
reading = 5.8

[[record]]
compound = "CC1(C)C(/C=C/C=C/C=C/C=C2/N(CCCCS(=O)(=O)O)c3ccc(C(=O)NC[C@H](O)[C@@H](O)[C@H](O)[C@H](O)CO)cc3C2(C)C)=[N+](CCCCS(=O)(=O)[O-])c2ccc(C(=O)NCCCCCCCC(=O)Nc3nnc(S(N)(=O)=O)s3)cc21"
reading = 16.4

[[record]]
compound = "CC1(C)C(/C=C/C2=C(Oc3ccc(CCC(=O)NCCCCCCCC(=O)Nc4nnc(S(N)(=O)=O)s4)cc3)C(=C/C=C3/N(CCCCS(=O)(=O)O)c4ccc(S(=O)(=O)O)cc4C3(C)C)/CCC2)=[N+](CCCCS(=O)(=O)[O-])c2ccc(S(=O)(=O)O)cc21 [HF-1, reference compound]"
reading = 3.1

[[record]]
compound = "CC1(C)C(/C=C/C=C/C=C/C=C2/N(CCCCS(=O)(=O)O)c3ccc(S(=O)(=O)O)cc3C2(C)C)=[N+](CCCCS(=O)(=O)[O-])c2ccc(C(=O)NCCCCCCCC(=O)Nc3nnc(S(N)(=O)=O)s3)cc21"
reading = 15.2


====

TEST_NAME: Optical characterization (excitation/emission maxima, molar extinction coefficient)
Format: physicochemical
ASSAY_CONTEXT: PBS pH 7.4
Listing of recorded Max Em by entry.
QUANTITY: Max Em (nm)

[[record]]
compound = "CC1(C)C(/C=C/C=C/C=C/C=C2/N(CCCCS(=O)(=O)O)c3ccc(S(=O)(=O)O)cc3C2(C)C)=[N+](CCCCS(=O)(=O)[O-])c2ccc(C(=O)NCCCCCCCC(=O)Nc3nnc(S(N)(=O)=O)s3)cc21 [Compound 2]"
quantity = "Max Em"
reading = 784

[[record]]
compound = "CC1(C)C(/C=C/C=C/C=C/C=C2/N(CCCCS(=O)(=O)O)c3ccc(C(=O)NC[C@H](O)[C@@H](O)[C@H](O)[C@H](O)CO)cc3C2(C)C)=[N+](CCCCS(=O)(=O)[O-])c2ccc(C(=O)NCCCCCCCC(=O)Nc3nnc(S(N)(=O)=O)s3)cc21 [Compound 1]"
quantity = "Max Em"
reading = 783

[[record]]
compound = "CC1(C)C(/C=C/C2=C(Oc3ccc(S(=O)(=O)O)cc3)C(=C/C=C3/N(CCCCS(=O)(=O)O)c4ccc(S(=O)(=O)O)cc4C3(C)C)/CCC2)=[N+](CCCCS(=O)(=O)[O-])c2ccc(C(=O)NCCCCCCCC(=O)Nc3nnc(S(N)(=O)=O)s3)cc21 [Compound 3]"
quantity = "Max Em"
reading = 802

[[record]]
compound = "CC1(C)C(/C=C/C2=C(Oc3ccc(CCC(=O)NCCCCCCCC(=O)Nc4nnc(S(N)(=O)=O)s4)cc3)C(=C/C=C3/N(CCCCS(=O)(=O)O)c4ccc(S(=O)(=O)O)cc4C3(C)C)/CCC2)=[N+](CCCCS(=O)(=O)[O-])c2ccc(S(=O)(=O)O)cc21 [HF-1, reference compound]"
quantity = "Max Em"
reading = 798


// provenance: patent US20250352675A1
